Values compiled from patent US4161598A.

- System: acetylcholine
- Protocol Notes: Anti-acetylcholine Writhing Test
- Assay type: in vivo, mice
- Test Settings: Mus musculus, sc, 20 min, subcutaneous; form tested not given; read-out: Subcutaneous ED50 (95% Confidence Limits)
Measurement Type: ED50 (mg/kg)
Write the number in mg/kg without appending the unit.

Known results for compounds:
Need ED50, item C=CCN1CC[C@@]2(C)c3cc(O)ccc3[C@@H](O)[C@@H]1[C@@H]2C (relative stereo) [Example 17]
4.8

Lookup Cc1ccc(C(=O)Oc2ccc3c(c2)[C@]2(C)CCN(CC4CC4)[C@H](C3=O)[C@@H]2C)cc1 (relative stereo) [Example 12]
0.06

Lookup C[C@H]1[C@H]2C(=O)c3ccc(O)cc3[C@]1(C)CCN2CCc1ccccc1 (relative stereo) [Example 34]
4.2

Lookup C[C@@H]1[C@H]2C(=O)c3ccc(O)cc3[C@]1(C)CCN2CC1CC1 (relative stereo) [Example 27]
30

More entries:
Need ED50, item C=CCN1CC[C@@]2(CC)c3cc(O)ccc3C(=O)[C@@H]1[C@@H]2C (relative stereo) [Example 37]
2.3

Lookup C[C@H]1[C@H]2C(=O)c3ccc(OC(=O)c4ccc(C(F)(F)F)cc4)cc3[C@]1(C)CCN2CC1CC1 (relative stereo) [Example 13]
0.05

Lookup CC(C)CC(=O)Oc1ccc2c(c1)[C@]1(C)CCN(CC3CC3)[C@H](C2=O)[C@@H]1C (relative stereo) [Example 7]
0.06

Lookup C[C@H]1[C@H]2C(=O)c3ccc(O)cc3[C@]1(C)CCN2CC1CCC1 (relative stereo) [Example 35B]
3.9

Lookup C[C@H]1[C@H]2C(=O)c3ccc(OC(=O)c4ccccc4)cc3[C@]1(C)CCN2CC1CC1 (relative stereo) [Example 9]
0.07
